tested on: T47D; assay: NCI tumour cell line growth inhibition, 48 h
Activity calls are given as the source filed them. Cut-off read from the data, not from the text of the source: active = GI50 up to about 1.1 µM and inactive = higher.
Hi! Could you answer with just one of these? 1 for active, -1 for inactive

1) Cc1cc(C)nc(NS(=O)(=O)c2ccc(NC(=O)c3ccc4nc5ccccc5c(Nc5ccc(S(=O)(=O)Nc6nc(C)cc(C)n6)cc5)c4c3)cc2)n1 = -1
2) O=C1N=C(SC2OC(CO)C(O)C(O)C2O)S/C1=C\c1ccccc1 (stereo unspecified) = -1
3) CCCCc1ccc(Nc2nc(SC)c3[nH]cnc3n2)cc1 = -1
4) COC(=O)/C=C1\CCC(C)(C(=O)NS(=O)(=O)c2ccc(C)cc2)C1(C)C (stereo unspecified) = -1
5) CO/N=C(\C)c1ccc(Nc2nc3ccccc3c3occc23)cc1 = -1

Query: Recorded test outcome, item "Cc1ccc(S(=O)(=O)NC(=O)NCC(N)=O)cc1"
Result: -1

Query: Repeat for the following compound: "O=c1c2cc3c(cc2[nH]c2ncccc12)OCO3"
Result: -1

Query: Also "Nc1ccccc1OCc1cc(=O)c(OCc2ccccc2)co1" , if possible.
Result: -1

Query: What would you report for "CC(C)NC(=O)OCc1c2c(n(C)c1COC(=O)NC(C)C)-c1cc(Cl)c(Cl)cc1CC2" ?
Result: -1

Query: Request: "O=c1cc(-c2cccnc2)[nH]c2cc3c(cc12)OCO3"
Result: -1

Query: What about this compound? "COc1ccccc1NC(=S)N/N=C(/c1ccccc1)c1ccccn1"
Result: 1

Query: # repeat for "COc1ccc(C2=NNC(=O)c3ccccc3N2c2nc(-c3cccs3)nc3cc(OC)c(OC)cc23)cc1"
Result: -1

Query: Thanks! And "CCC/C(=N\NC(=S)N1CCN(c2ccccn2)CC1)c1ccccn1" ?
Result: 1

Query: Try this compound too: O=C1NC(c2cccc(OCc3ccccc3)c2)Nc2ccccc21 (stereo unspecified)
Result: -1

Query: Note, next up: "CCCCOc1ccc(NC(=N)Nc2ccc(Cl)cc2)cc1"
Result: 1

Query: Record: CC1CN=C(N(C(=O)Nc2ccc(F)c(Cl)c2)c2ccccc2)S1 (stereo unspecified)
Result: -1

* * *

test system: HL-60; test: NCI tumour cell line growth inhibition, 48 h
Activity calls are given as the source filed them. No stated cut-off is given here; in the data, active = GI50 up to about 1.1 µM and inactive = higher.
Hi there, use one of these labels in your reply, thanks! T for active, F for inactive

Look over these answered cases.
1) CC1SC2=NC3=C(c4ccccc4C3=O)C(c3ccc(Br)cc3)N2C1=O (stereo unspecified) = F
2) C=CC1(NC(=O)c2ccccc2)CCC(C(C)(C)C)CC1 (stereo unspecified) = F
3) [N-]=[N+]=Nc1ncnc2c1sc(=S)n2-c1ccccc1 = F
4) Nc1ncnc2c1ncn2C1OC(CSCc2ccc(Cl)cc2)C(O)C1O (stereo unspecified) = F
5) Cn1c(=O)c(C(=O)NC(=O)NCCCCCOC(=O)CCCCCCCCCCC(=O)OCCCCCNC(=O)NC(=O)c2cn(Cc3ccccc3)c(=O)n(C)c2=O)cn(Cc2ccccc2)c1=O = F

Would you kindly look at the next entry?
Query: Write down the call the test reported for this molecule. Item: "CCC/C(=N\NC(=S)N1CCN(c2ccccn2)CC1)c1ccccn1"
Result: T

* * *

test system: OVCAR-5; experiment: NCI tumour cell line growth inhibition, 48 h
Calls of active or inactive are those of the source. No stated cut-off is given here; in the data, active = GI50 up to about 1.1 µM and inactive = higher.
property_name: GI50

1) N#Cc1cc2c(n(C3OC(CO)C(O)C(O)C3O)c1=S)CCCCC2 (centres undefined) = > 100 µM (inactive)
2) COc1ccccc1-c1cc(=O)c2ccccc2n1C1CC1 = 2.72 µM (inactive)
3) O=C(O)C1CCC(=O)N1S(=O)(=O)c1ccccc1 (centres undefined) = > 100 µM (inactive)
4) O=C(COc1ccc2c(=O)cc(-c3ccc(Cl)cc3)oc2c1)N1CCN(c2ccccc2)CC1 = > 100 µM (inactive)

Query: Given the compound C1OC1CO[C@@H]1CO[C@H]2[C@@H]1OC[C@H]2OCC1CO1 (some centres undefined) , what is its reported GI50?
Result: > 100 µM (inactive)

Query: Request: CC(C)(O)[C@@H]1CCC(C)([C@H]2[C@@H](O)CC3(C)C4CC(OC5OC(CO)C(O)C(O)C5O)C5C(C)(C)[C@@H](OC6OCC(O)C(O)C6O)CC[C@@]56C[C@@]46CC[C@]23C)O1 (some centres undefined)
Result: > 100 µM (inactive)

Reference source: ChEMBL document CHEMBL1201862
